- ASSAY_PROCEDURE: Cell Viability - LYMP2-004 (AID 966);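 also: cells exposed to compound for 24 h; nearly all actives have a fitted effect of over 65% in size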
- CONDITION_INFO: LYMP2-004 lymphoblastoid cell viability, qHTS; series mostly up to 92.2 µM
- Excerpt: NIH Chemical Genomics Center [NCGC] NIH Molecular Libraries Screening Centers Network [MLSCN] National Institutes of Environmental Health Sciences [NIEHS] National Toxicology Program [NTP] We have developed a 1536-well cell-based assay for quantitative high throughput screening (qHTS) against a number of cell lines to determine in vitro cytotoxicity of small molecules. […] 8. Detection; Luminescence; Viewlux plate reader […]
Inconclusive results are not listed. Calls of active or inactive are those of the source. Calls follow the shape of the dose curve; as a rule, active = well fitted cell-killing curve with a large enough effect; inconclusive = small, poorly fitted or top-dose-only effect, or effect the other way; inactive = no such curve, though single readings can be large or run the other way.
Your reply should match one of these outcome classes. 1 (yes) = active, 0 (no) = inactive

# count of solved cases: 10
INSERT INTO results (molecule, discrete_label) VALUES
  ('O=C(O)c1c(Cl)cccc1Cl', '0 (no)'),
  ('CCN(Cc1ccccc1)c1ccccc1', '0 (no)'),
  ('Cc1cc(C)c(N)cc1C', '0 (no)'),
  ('Cc1cccc2sc(N)nc12', '0 (no)'),
  ('CC1=C(/C=C/C(C)=C/C=C/C(C)=C\C=O)C(C)(C)CCC1', '1 (yes)'),
  ('C=CCOC(=O)COCCC(C)C', '0 (no)'),
  ('C/C=C(/C)C#N', '0 (no)'),
  ('CCOCCOCC', '0 (no)'),
  ('OCCO', '0 (no)'),
  ('CCCCC(CC)CO (stereo unspecified)', '0 (no)');

Fill in: this test's call for `NC(=O)c1ccccc1[N+](=O)[O-]` is ___
0 (no)

How was CCC(=O)/C=C/C1C(C)=CCCC1(C)C (stereo unspecified) classified in this test?
0 (no)

Recorded call for `CCN(CC)c1cccc(O)c1` ?
0 (no)

# lookup: test call for `Cc1ccc(N(C)C)cc1`
0 (no)

Which outcome was assigned to CC(=O)C1(C)CC2=C(CCCC2(C)C)CC1C (stereo unspecified) in this test?
0 (no)

Recorded test call requested for `O=[N+]([O-])c1cccc(C(F)(F)F)c1`
0 (no)

Name the outcome recorded for `Nc1cccc2c(=O)[nH][nH]c(=O)c12` in the assay.
0 (no)

Assay outcome for CCCCC(CC)C(=O)O (stereo unspecified) : what was it?
0 (no)

Which outcome was entered for the molecule `Cc1c(C(=O)O)cccc1[N+](=O)[O-]` in this test?
0 (no)

* * *

- ASSAY_PROCEDURE: Cell Viability - LYMP1-002 - Assay at 16 hr (AID 948);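 also: 0% = DMSO alone and full effect = 92 µM tetraoctylammonium bromide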
- CONDITION_INFO: LYMP1-002 lymphoblastoid cell viability; series mostly up to 92.2 µM
Records with an inconclusive call do not appear. Active and inactive are the calls of the source. Calls come from the whole dose curve; as a rule, active = well fitted cell-killing curve with a large enough effect; inconclusive = small, poorly fitted or top-dose-only effect; inactive = flat fitted curve, though single readings scatter.
MEASUREMENT_NAME: outcome

INSERT INTO assay_data (molecule, measurement_name, measured_result) VALUES
  ('O=[N+]([O-])c1cccc(C(F)(F)F)c1', 'outcome', 'inactive'),
  ('Cc1ccc(C(C)(C)C)cc1', 'outcome', 'inactive'),
  ('OC/C(Br)=C(\Br)CO', 'outcome', 'inactive'),
  ('Cc1ccccc1C=O', 'outcome', 'inactive'),
  ('CCCCN(CCO)CCCC', 'outcome', 'inactive'),
  ('Cc1ccc(N(C)C)cc1', 'outcome', 'inactive'),
  ('Cc1cc(C(=O)O)ccc1[N+](=O)[O-]', 'outcome', 'inactive'),
  ('C=C(C)C(=O)OCC(C)O (stereo not drawn)', 'outcome', 'inactive'),
  ('CC(=O)CCc1ccccc1', 'outcome', 'inactive'),
  ('C[C@@H]1O[C@@H](O[C@@H]2[C@@H](O)[C@H](OCCc3ccc(O)c(O)c3)O[C@H](CO[C@@H]3O[C@H](CO)[C@@H](O)[C@H](O)[C@H]3O)[C@H]2OC(=O)/C=C/c2ccc(O)c(O)c2)[C@H](O)[C@H](O)[C@H]1O', 'outcome', 'inactive');

For every record below, what is its outcome?
1. C=C(C)C(=O)OCC(C)C
2. Cc1ccco1
3. Nc1cc(Cl)c(N)c(Cl)c1

1. inactive
2. inactive
3. inactive
